# Tested on: pyruvate dehydrogenase (Rattus norvegicus)
# Protocol Text: Tested for pyruvate oxidation in rat diaphragm, measured as % conversion of [14C]pyruvate to 14CO2 at 5 mM concentration
Property Measured: Stimulation (%)

Molecule	Stimulation / %
NC(=O)c1ccc(C(=O)C(=O)O)cc1	20

[a] COc1ccc(C(N)C(=O)O)cc1 (stereo in doubt; L-27)
[b] O=C(O)C(=O)c1ccc(Cl)cc1
Ask | For the pair a and b , which member has the lower Stimulation number? Could you answer with the label of the item you picked?
Reply | b

====

# Measurement Target: Pyruvate dehydrogenase kinase (Rattus norvegicus) (UniProt Q63065+A6IPZ9+Q64536+O54937)
# Protocol Text: Pyruvate dehydrogenase active/ Pyruvate dehydrogenase total was measured by sc administering the DCA in rat at a dose of 1.2 mmol/kg
# Format: functional, organism-based
Property Measured: PDH active/PDH total (%)

Compound	Property Measured	Readout Unit	Experimental Value
COc1ccc(C(N)C(=O)O)cc1 (stereo in doubt; D-28)	PDH active/PDH total	%	87
CC(C)Sc1ccc(C(=O)C(=O)O)cc1	PDH active/PDH total	%	96
CCCCSc1ccc(C(=O)C(=O)O)cc1	PDH active/PDH total	%	96
CSc1ccc(C(=O)C(=O)O)cc1	PDH active/PDH total	%	82

Ref: ChEMBL document CHEMBL1121812
